B1: Activity-dependent neuroprotector homeobox protein, residues 770 to 810; numbered along this chain, Q9H2P0 (parent)
chain: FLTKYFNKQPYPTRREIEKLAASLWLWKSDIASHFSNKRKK

Variants of: B1
Assay: abundance fitness (aPCA) (normalised: wild type 0, dead -1); higher = more abundant; growth selection in yeast, the domain comes from the species named
Details: Homo sapiens
# abundance fitness per record follows
// no unit, no text: just the number

Check out these entries, answers already filled in.
T13L; 0.132
H34P; -0.01

q: Give abundance fitness for L26W
a: 0.044

q: Quickly give me recorded abundance fitness for D30K
a: 0.071

q: Give me measured abundance fitness, please, for this variant: S33A
a: 0.014

q: Give the reported value of abundance fitness for this record: Q9R
a: 0.039

q: Dear colleague, please send me the reported abundance fitness for T3F when you can.
a: -0.613
